PROCEDURE_DETAILS: qHTS Assay for Inhibitors of Hepatitis C Virus (HCV); note: potency is the fitted concentration of half-maximal effect
CONDITION_NOTES: Huh7.5.1 HCVcc-Cre infection, luciferase reporter, 44 h; series mostly up to 41.8 µM
In all, about 340,000 compounds went through this assay and about 12,000 (3.5%) were called active. Not shown: some 18% with an inconclusive outcome. The sample holds actives, similar compounds and a random draw of the others, so the mix is not that of the screen.
MEASURED_ENDPOINT: Potency

// worked examples, Potency included
OC(COc1ccc(F)cc1Cl)CN1CCc2ccccc2C1 (stereo unspecified) ... inactive
Cc1ccc(S(=O)(=O)NCCC(=O)NC2CCN(Cc3ccccc3)CC2)cc1 ... inactive
Cc1ccc(-c2nc(CSCC(=O)NC3CCN(Cc4ccccc4)CC3)c(C)o2)cc1 ... 12.6 µM (active)
CCOc1ccc(/C=C(/C#N)c2nnc(N3CCOCC3)n2-c2ccccc2)cc1OC ... inactive
CCOc1cc(N2CCOCC2)c(OCC)cc1NC(=O)c1cc(C)nc2ccccc12 ... inactive
CCCCCCCCCCCCn1ccc(=N)cc1 ... 0.501 µM (active)
COc1ccc2c(c1)C(=O)Nc1cc(Cl)ccc1N2 ... inactive
O=c1oc2ccc(C#CC3(O)CCCCC3)cc2cc1-n1cc(-c2ccsc2)nn1 ... inactive

# per-item lookup of Potency; items listed below
1. CCOc1cc(N2CCOCC2)c(OCC)cc1NC(=O)C1=NN(c2cccc(C)c2)C(=O)CC1
2. Cc1ccc(-c2nc(CS(=O)CC(=O)NC3CCCC3)c(C)o2)cc1 (stereo unspecified)
3. COc1ccccc1OCC(O)CN1CCOCC1 (stereo unspecified)

Given back:
inactive
inactive
inactive

====

PROCEDURE_DETAILS: qHTS Assay for Inhibitors of Hepatitis C Virus (HCV)
CONDITION_NOTES: Huh7.5.1 HCVcc-Cre infection, luciferase reporter, 44 h; series mostly up to 41.8 µM
Description: Hepatitis C virus (HCV) infects about 200 million people in the world. Many infected people progress to chronic liver disease including cirrhosis with a risk of developing liver cancer. To date, there is no effective vaccine for hepatitis C. Current therapy based on interferon is only effective in about half of the patients and is associated with significant adverse effects. The fraction of people with HCV who can complete a successful treatment is estimated to be no more than 10 percent. […]
Among all 340,000 compounds or so, about 12,000 (3.5%) were called active. Another 18% or so got no clear call; they are omitted. Calls follow the shape of the dose curve; as a rule, active = well fitted inhibition curve with a large enough effect; inconclusive = small, poorly fitted or top-dose-only effect, or another doubt; inactive = no such curve, though single readings can be large or run the other way. The entries come from a sample that favours actives as a whole.
# valid calls are active, inactive; nothing else

Record excerpt, results attached:
CC(C)(C)OC(=O)N/N=C/c1cn(-c2ccccc2)nc1-c1cccnc1 ... inactive
Cc1cccc(NS(=O)(=O)c2ccc(C)c(C(=O)NCc3cccnc3)c2)c1 ... inactive
COc1ccc(-c2nn(-c3ccccc3)cc2C(=O)Nc2nccs2)cc1OC ... active
C=CCn1c(=N)n(CC(O)COc2ccc(OC)cc2)c2ccccc21 (stereo unspecified) ... active
Cc1cc(C)cc(OCC(=O)OCC(=O)NC2CCCC2)c1 ... inactive

Asked: Hi team, can someone confirm the assay call for COc1ccc(C(CNC(=O)c2ccc(S(=O)(=O)Nc3ccccc3C)cc2)N2CCOCC2)cc1 (stereo unspecified) ?
Given back: inactive

Asked: Hi team, can someone confirm the assay call for O=C1N[C@H](Cc2ccccc2)C(=O)N[C@H]1Cc1cn(S(=O)(=O)c2ccccc2)c2ccccc12 ?
Given back: inactive

Asked: Hi team, can someone confirm the assay call for Cc1ccc(C(=O)OCC(=O)N2CC(C)CC(C)C2)cc1S(=O)(=O)N1CCCCC1 (stereo unspecified) ?
Given back: inactive

Asked: Hi team, can someone confirm the assay call for CCCCn1c(SCc2ncc(-c3ccccc3)o2)nc2cc(S(N)(=O)=O)ccc21 ?
Given back: active

Asked: Hi team, can someone confirm the assay call for COc1ccc(OCC(O)CN(C)C(=O)C(C)Oc2ccccc2)cc1 (stereo unspecified) ?
Given back: inactive

Asked: Hi team, can someone confirm the assay call for CC1CCN(C(=O)COC(=O)CCC(=O)c2cccs2)CC1 ?
Given back: inactive

Asked: Hi team, can someone confirm the assay call for CCOc1ccc(CCNC(=O)COC(=O)C2CCN(S(=O)(=O)c3ccccc3)CC2)cc1OCC ?
Given back: inactive

Asked: Hi team, can someone confirm the assay call for O=C(CC1Sc2ccccc2NC1=O)NNc1ccc(Cl)c(Cl)c1 (stereo unspecified) ?
Given back: inactive

Asked: Hi team, can someone confirm the assay call for COCCN(C(=O)CC1CCCCC1)c1c(N)n(CC(C)C)c(=O)[nH]c1=O ?
Given back: inactive

Asked: Hi team, can someone confirm the assay call for COc1ccc(CN2C(CC(=O)Nc3cccnc3)c3ccc(C(F)(F)F)cc3S2(=O)=O)cc1 (stereo unspecified) ?
Given back: inactive

Asked: Hi team, can someone confirm the assay call for Cc1ccc2c(c1)C1CN(C)CCC1N2C(=O)c1ccccc1NS(=O)(=O)c1ccc(F)cc1C (stereo unspecified) ?
Given back: inactive

Asked: Hi team, can someone confirm the assay call for Cc1ccc2c(c1)C1CN(C)CCC1N2C(=S)Nc1ccc(Cl)cc1Cl (stereo unspecified) ?
Given back: active

Asked: Hi team, can someone confirm the assay call for CCOc1ccc(OCC(=O)OC(C)C(=O)NC2CCCCC2C)cc1 (stereo unspecified) ?
Given back: inactive

Asked: Hi team, can someone confirm the assay call for CCn1c(SCC(=O)NCC2CCCO2)nc2cc(S(=O)(=O)N3CCCCC3)ccc21 (stereo unspecified) ?
Given back: inactive

Asked: Hi team, can someone confirm the assay call for S=C(Nc1ccc(Cl)cc1Cl)N1CCCC1 ?
Given back: inactive

Asked: Hi team, can someone confirm the assay call for CC(C)Cc1nnc(NC(=O)CCNC(=O)c2ccccc2Cl)s1 ?
Given back: inactive

====

PROCEDURE_DETAILS: qHTS Assay for Inhibitors of Hepatitis C Virus (HCV)
CONDITION_NOTES: Huh7.5.1 HCVcc-Cre infection, luciferase reporter, 44 h; series mostly up to 41.8 µM
Text: Hepatitis C virus (HCV) infects about 200 million people in the world. Many infected people progress to chronic liver disease including cirrhosis with a risk of developing liver cancer. To date, there is no effective vaccine for hepatitis C. Current therapy based on interferon is only effective in about half of the patients and is associated with significant adverse effects. The fraction of people with HCV who can complete a successful treatment is estimated to be no more than 10 percent. […]
Hit rate of the full screen: of about 340,000 compounds, about 12,000 (3.5%) were called active. Inconclusive results (about 18%) are left out. Calls follow the shape of the dose curve; as a rule, active = well fitted inhibition curve with a large enough effect; inconclusive = small, poorly fitted or top-dose-only effect, or another doubt; inactive = no such curve, though single readings can be large or run the other way. This excerpt belongs to a sample that is enriched for actives.
# valid calls are label 1 = active, label 0 = inactive; nothing else

Record excerpt, results attached:
CCOC(=O)N1CCN(C(=O)c2ccc3c(c2)N(Cc2ccc(C)cc2)CCS3)CC1 ... label 1
O=C(NCCN1CCOCC1)c1ccc2c(c1)N(Cc1ccc(Cl)cc1)CCS2 ... label 0
CC(C)(CNC(=O)CNC(=O)C1CCCCC1)N1CCOCC1 ... label 0
O=C(c1ccc2c(c1)N(Cc1ccc(F)cc1)C(=O)CS2)N1CCOCC1 ... label 0

Asked: Hi team, can someone confirm the assay call for CCOC(=O)/C(=N\Nc1ccccc1[N+](=O)[O-])c1csc(Nc2ccccc2)n1 ?
Given back: label 1

Asked: Hi team, can someone confirm the assay call for Cc1csc(NC(=O)Nc2ccccc2[N+](=O)[O-])n1 ?
Given back: label 0

Asked: Hi team, can someone confirm the assay call for CCc1cccc(CC)c1NC(=S)NCc1ccc2[nH]c(C)cc2c1 ?
Given back: label 1

Asked: Hi team, can someone confirm the assay call for CCOC(=O)C1(Cc2cccc(OC)c2)CCN(C(C)CC(C)(C)O)CC1 (centres undefined) ?
Given back: label 0

Asked: Hi team, can someone confirm the assay call for CCOc1ncccc1C(=O)OCC(=O)N1c2ccccc2CC1C (centres undefined) ?
Given back: label 0

Asked: Hi team, can someone confirm the assay call for CCOC(=O)C1(Cc2cccc(OC)c2)CCN(C(C)COC)CC1 (centres undefined) ?
Given back: label 0

====

PROCEDURE_DETAILS: qHTS Assay for Inhibitors of Hepatitis C Virus (HCV)
CONDITION_NOTES: Huh7.5.1 HCVcc-Cre infection, luciferase reporter, 44 h; series mostly up to 41.8 µM
In all, about 340,000 compounds went through this assay and about 12,000 (3.5%) were called active. Another 18% or so got no clear call; they are omitted. Calls come from the whole dose curve; as a rule, active = well fitted inhibition curve with a large enough effect; inconclusive = small, poorly fitted or top-dose-only effect, or another doubt; inactive = no such curve, though single readings can be large or run the other way. Only a selection was taken, and actives are over-represented in it overall.
# valid calls are 1 (yes) for active, 0 (no) for inactive; nothing else

CCCCCCSc1ccc([C@@H]2[C@H]3C(=O)N(CC)C(=O)[C@H]3[C@]3(C(=O)OC)CCCCN23)cc1 ... 0 (no)
CCN(Cc1ccccc1)S(=O)(=O)c1cc2c3c(c1)CCN3C(=O)CC2 ... 0 (no)
CCN(C(=O)CSc1ncnc2sccc12)c1c(N)n(Cc2ccccc2)c(=O)[nH]c1=O ... 0 (no)
COc1ccccc1NC(=O)N(O)C1(C#N)CCCCC1 ... 0 (no)

Asked: Hi team, can someone confirm the assay call for O=C1NC(=O)C(CCc2ccccc2)(c2ccccc2)N1 (centres undefined) ?
Given back: 0 (no)

Asked: Hi team, can someone confirm the assay call for Cc1ccc(N2CC(C(=O)Nc3cc(Cl)ccc3-n3cncn3)CC2=O)cc1 (centres undefined) ?
Given back: 0 (no)

Asked: Hi team, can someone confirm the assay call for CCC(C)N1C(=S)SC(C)(C)C1N(O)C(=O)NC1CCCCC1 (centres undefined) ?
Given back: 0 (no)

Asked: Hi team, can someone confirm the assay call for CCCn1c(=NC(C)=O)c(C(=O)OCC)cc2c(=O)n3ccccc3nc21 ?
Given back: 0 (no)

Asked: Hi team, can someone confirm the assay call for Cc1ccc(SCC(=O)c2cc(C)c(OC(=S)N(C)C)c(C)c2)cc1 ?
Given back: 1 (yes)

Asked: Hi team, can someone confirm the assay call for CCn1nc(NC(=O)c2ccco2)c2cc3ccc(C)cc3nc21 ?
Given back: 1 (yes)

Asked: Hi team, can someone confirm the assay call for CN(C)c1nc(Nc2ccc(Cl)c(Cl)c2)nc(N(C)C)n1 ?
Given back: 0 (no)

Asked: Hi team, can someone confirm the assay call for CCCCNC(=O)N(O)C1N(/N=C/c2ccc(N(C)C)cc2)C(=S)SC1(C)C (centres undefined) ?
Given back: 0 (no)

Asked: Hi team, can someone confirm the assay call for CN1CCN(c2ccc(NC(=O)c3ccccc3)cc2)CC1 ?
Given back: 0 (no)

Asked: Hi team, can someone confirm the assay call for CCOc1ccc2nc(N(CCN(C)C)C(=O)c3ccc4ccccc4c3)sc2c1 ?
Given back: 0 (no)

Asked: Hi team, can someone confirm the assay call for OCCNc1nc(Nc2ccc(Cl)c(Cl)c2)nc2ccccc12 ?
Given back: 1 (yes)

Asked: Hi team, can someone confirm the assay call for CCN1CCN(C(=O)CSc2ccc(C)cc2)CC1 ?
Given back: 0 (no)

Asked: Hi team, can someone confirm the assay call for S=c1ccc2ccccc2[nH]1 ?
Given back: 0 (no)

Asked: Hi team, can someone confirm the assay call for COc1ccc(OC)c(S(=O)(=O)Nc2ccccc2F)c1 ?
Given back: 0 (no)

Asked: Hi team, can someone confirm the assay call for O=C(CSc1c2c(nc3ccc(Cl)cc13)CCCC2)NCc1ccco1 ?
Given back: 0 (no)

Asked: Hi team, can someone confirm the assay call for O=C(CSc1nc2ccc(Nc3nc(N4CCOCC4)nc(N4CCOCC4)n3)cc2s1)NCc1ccco1 ?
Given back: 1 (yes)

Asked: Hi team, can someone confirm the assay call for Cc1cccc(OCC(O)CN2CCN(CCN3C(=O)c4cccc5cccc(c45)C3=O)CC2)c1C (centres undefined) ?
Given back: 1 (yes)

Asked: Hi team, can someone confirm the assay call for O=C(Nc1ccc(N2CCN(C(=O)c3cccs3)CC2)cc1)c1cccnc1Cl ?
Given back: 0 (no)

Asked: Hi team, can someone confirm the assay call for COc1cccc2sc(N(CCCN(C)C)C(=O)C(c3ccccc3)c3ccccc3)nc12 ?
Given back: 1 (yes)

Asked: Hi team, can someone confirm the assay call for Cc1nnc(NCCO)c2ccccc12 ?
Given back: 0 (no)

Asked: Hi team, can someone confirm the assay call for O=C(Nc1ccc(N2CCOCC2)cc1)c1ccc(-c2ccccc2[N+](=O)[O-])o1 ?
Given back: 1 (yes)

Asked: Hi team, can someone confirm the assay call for CC12CCCCC1=CC(=O)CC2 (centres undefined) ?
Given back: 0 (no)

Asked: Hi team, can someone confirm the assay call for Cc1cccc(NC(=S)NC(=O)c2ccc(Br)o2)c1 ?
Given back: 0 (no)

Asked: Hi team, can someone confirm the assay call for CS(=O)(=O)c1ccc(C(=O)OCC(=O)NNC(=O)COc2ccc(Cl)cc2)cc1 ?
Given back: 0 (no)

Asked: Hi team, can someone confirm the assay call for COc1cc2ccccc2cc1C(=O)N(CCN(C)C)c1nc2c(F)cccc2s1 ?
Given back: 1 (yes)

Asked: Hi team, can someone confirm the assay call for O=C(Nc1ccc(N2CCN(C(=O)C3CC3)CC2)cc1)c1cccs1 ?
Given back: 0 (no)

Asked: Hi team, can someone confirm the assay call for CC1CCCCC1NC(=O)c1cc(=O)[nH]c2ccccc12 (centres undefined) ?
Given back: 0 (no)
